# target.or.test.system: VTCN1, Q7Z7D3
# Sequence (Q7Z7D3 whole entry): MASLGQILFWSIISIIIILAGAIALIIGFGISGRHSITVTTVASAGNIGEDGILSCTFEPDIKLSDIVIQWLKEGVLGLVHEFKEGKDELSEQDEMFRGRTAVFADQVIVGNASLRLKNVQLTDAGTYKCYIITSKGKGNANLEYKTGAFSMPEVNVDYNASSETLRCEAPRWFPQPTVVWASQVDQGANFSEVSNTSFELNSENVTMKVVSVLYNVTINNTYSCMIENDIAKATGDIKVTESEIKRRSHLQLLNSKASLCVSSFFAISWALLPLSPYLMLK
Possible outcomes: YES = active, NO = inactive

binder="design_608_fd41b8f9-4da9-4c78-93ec-aaa316ed4933_2397_dldesign_0_cycle1_af2pred (protein) RDKLLMYVAAVRGAARIAKDDPEKGKEALEIETEELVEVMAKASEEEAAEAKELAVAAAAEVDPEIAEWVRKFIEEKLKEKR" answer_label=NO
binder="design_596_3e5f537c-0703-45f0-993f-ff416531349a_2330_dldesign_0_cycle1_af2pred (protein) EEALKKAEERYEKYGKKALELAEKVGLKEEVEEGIKDPSKMPEVIKKLEELGEENPEVRKDAYLAASYLQRAQQAYETKKKIEAA" answer_label=NO
binder="design_609_7ee6ce64-4629-41e8-bcb4-ba0da017284d_738_dldesign_0_cycle1_af2pred (protein) MEEALARIDAALKRAKELAKEAEKAGDKKAAAEMESAIAFAEQQRENALKGSPEYAKKAAEAAEAYTDRKIKRAEEIRKKK" answer_label=NO
binder="design_608_fd41b8f9-4da9-4c78-93ec-aaa316ed4933_581_dldesign_0_cycle1_af2pred (protein) SEELEKVKKLLEKGIETAKKNPVKGASLLLKAEHMAKQLAEKKKGTEEAKELEELSKKAKEEFDKAAKKISE" answer_label=NO
binder="design_376_bf9d4634-8475-4fdb-a175-1db49a23bdcd_110_dldesign_0_cycle1_af2pred (protein) VEELVEKVKKETAKKVWESTDLSAEEKEKVADELEALAKELAKISPEAAKAAKKAAAVVKRFAEDEKKAE" answer_label=NO
binder="design_609_7ee6ce64-4629-41e8-bcb4-ba0da017284d_1721_dldesign_0_cycle1_af2pred (protein) SKLEEDKKKAEELKKEAEKLAEEAAKTTPEEAKKLRKELREKAKKVAEEVSPEIAKKVAEIAHEAQQKIAEAMQEIKK" answer_label=NO
binder="design_598_15ab41e9-cad4-4381-8935-81f74b313fe8_1154_dldesign_0_cycle1_af2pred (protein) EKAKKAAEYSSEAAKHAIKAAKLLKEAGAPQEVLNLLQEAIVNMDKAAEYYAAAMEAAKKNPELGPEIQAELKKAEEHTKKANELL" answer_label=NO
binder="design_599_7ce25d4d-e004-4b84-a16f-baf856d943ab_284_dldesign_0_cycle1_af2pred (protein) AEVEAFKAAAEKYYKKAKEYFEKAKKTGSKSLYLKGASYAELALHNLENAAKAAAAKDPAEGAKLQKELKETKEELDKLYEEARKAAV" answer_label=YES
binder="design_597_f3dcd2b3-c7aa-4b15-88bc-bbb8d01a18cd_2474_dldesign_0_cycle1_af2pred (protein) MKADEEAAKKAAAARDTAFDKIAAGEDPQAAYDAAKAEMKKIAEEYGVSPETKEKIEKGIKALERFAAAAAKAAA" answer_label=NO
binder="design_608_fd41b8f9-4da9-4c78-93ec-aaa316ed4933_228_dldesign_0_cycle1_af2pred (protein) GEEVIKEIAEEEIKEAEKTLKEAEKLLKKGGTEEAKEAVEKAKEYIKKGKEKLEEGDYKTAYSLATLGKHNAEIAIKLIKEKN" answer_label=NO
